FYI, the data here is from ChEMBL document CHEMBL1201862.

- System: UO-31
- assay: NCI tumour cell line growth inhibition, 48 h
Calls of active or inactive are those of the source. Rule as the data show it: active = GI50 up to about 1.1 µM and inactive = higher.
# valid calls are Y for active, N for inactive; nothing else

compound: O=C(O)c1c(-c2ccccc2)c(=O)[nH]c2ccccc12
cat: N
//
compound: COc1cccc(-c2cc(O)c3cc(NC(C)=O)ccc3n2)c1
cat: N
//
compound: CC(=O)OC(Cc1cc(C=C(C(F)(F)F)C(F)(F)F)cc(C)n1)(C(F)(F)F)C(F)(F)F
cat: N
//
compound: CCOC(=O)C1N(S(=O)(=O)c2ccc(C)cc2)CCC12c1ccccc1NC2c1ccc(OC)c(OC)c1 (stereo unspecified)
cat: N
//
compound: Clc1cc(-c2csc(Cl)c2)cs1
cat: N

Next, consider the following compound.
Returns: the outcome recorded for O=c1nc(N2CCCCC2)sc2[nH]c3ccccc3c12 in this assay.
N
